The measured values listed here are drawn from paper PMC8131363.

- System Under Test: UniProtKB C7FF08
- Study Conditions: read-out: EC50 Ago
Measure Name: pEC50
Keep in mind that pEC50 stands for -log10 of concentration in molar terms.

IN: Find the measured pEC50 of [Ba+2].[Cl-].[Cl-] [Ba^2+, Barium chloride dihydrate] and report it.
OUT: 2.93

---

- System Under Test: UniProt C7FF08
- Assay Overview: cell-based
- Study Conditions: cCaSR stable EC50(mM), stably expressed cCaSR, Fig. 6b; > 3 mM = maximal response not reached
Measure Name: EC50

IN: Find the measured EC50 of CC[C@H](NC(=O)CC[C@H](N)C(=O)O)C(=O)NCC(=O)O [γ-Glu-Abu-Gly] and report it.
OUT: > 3 mM

IN: Find the measured EC50 of N[C@@H](CCC(=O)N[C@@H](CS)C(=O)NCC(=O)O)C(=O)O [Glutathione] and report it.
OUT: > 3 mM

IN: Find the measured EC50 of CC(C)[C@H](NC(=O)CC[C@H](N)C(=O)O)C(=O)O [γ-Glu-Val] and report it.
OUT: > 3 mM

IN: Find the measured EC50 of NCCCCNCCCN [Spermidine] and report it.
OUT: 2.3 mM

---

- System Under Test: UniProtKB C7FF08
- Study Conditions: read-out: EC50 Ago; Supplementary Table I, agonist assay; > 0.01 M = maximal response not reached
As shown below, each of these compounds has a reported EC50 value.
Please state the figure in µM; there is no need to write the unit.

Known EC50 results, listed for orientation:
[Ca+2].[Cl-].[Cl-] ... 1620
O=P(O)(O)CP(=O)(O)O ... 1290
[Gd+3] ... 295
CC(=O)[O-].CC(=O)[O-].CC(=O)[O-].O.[Tb+3] [Tb^3+, Terbium(III) acetate hydrate] ... 175

Now take the following compound into account.
IN: Report its EC50 with UniProtKB C7FF08 as the test system: O=S(=O)([O-])C(F)(F)F.O=S(=O)([O-])C(F)(F)F.O=S(=O)([O-])C(F)(F)F.[Pr+3]
OUT: 398

---

As shown below, each of these compounds has a reported pEC50 value.
- System Under Test: cCaSR (Felis catus)
- Sequence (C7FF08 1-1081): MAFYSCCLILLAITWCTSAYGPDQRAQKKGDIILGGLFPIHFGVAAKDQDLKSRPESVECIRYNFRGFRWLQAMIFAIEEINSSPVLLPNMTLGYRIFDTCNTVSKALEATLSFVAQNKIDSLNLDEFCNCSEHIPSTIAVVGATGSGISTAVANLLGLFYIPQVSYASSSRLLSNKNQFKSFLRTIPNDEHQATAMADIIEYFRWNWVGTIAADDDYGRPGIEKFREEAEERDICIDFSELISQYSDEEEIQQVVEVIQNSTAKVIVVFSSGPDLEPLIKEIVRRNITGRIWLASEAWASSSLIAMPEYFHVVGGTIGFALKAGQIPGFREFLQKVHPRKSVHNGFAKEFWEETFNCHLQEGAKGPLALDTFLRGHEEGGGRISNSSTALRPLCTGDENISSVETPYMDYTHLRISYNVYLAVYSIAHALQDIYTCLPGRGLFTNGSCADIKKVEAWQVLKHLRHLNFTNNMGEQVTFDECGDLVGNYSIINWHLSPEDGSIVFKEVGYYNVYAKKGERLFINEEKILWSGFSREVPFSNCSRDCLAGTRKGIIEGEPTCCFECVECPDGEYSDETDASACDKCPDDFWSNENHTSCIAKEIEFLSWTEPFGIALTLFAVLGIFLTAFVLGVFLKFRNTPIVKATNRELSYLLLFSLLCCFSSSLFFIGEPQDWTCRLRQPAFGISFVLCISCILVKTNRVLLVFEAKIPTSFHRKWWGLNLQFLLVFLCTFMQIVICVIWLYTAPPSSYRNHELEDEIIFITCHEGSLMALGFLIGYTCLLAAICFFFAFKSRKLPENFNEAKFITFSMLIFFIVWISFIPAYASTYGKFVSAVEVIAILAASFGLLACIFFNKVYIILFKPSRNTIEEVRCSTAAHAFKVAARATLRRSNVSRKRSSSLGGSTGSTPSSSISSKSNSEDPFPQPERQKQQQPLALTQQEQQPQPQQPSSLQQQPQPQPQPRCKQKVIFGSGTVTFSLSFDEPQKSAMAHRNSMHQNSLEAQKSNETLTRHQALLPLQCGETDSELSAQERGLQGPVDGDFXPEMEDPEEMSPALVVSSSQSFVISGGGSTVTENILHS
- Assay Overview: cell-based
- Study Conditions: cCaSR activity, agonist assay, stable inducible cCaSR line, at least three wells
pEC50: −log10 of the molar value.

Known pEC50 results, listed for orientation:
CC(C)C[C@H](NC(=O)C[C@H](N)C(=O)O)C(=O)O [β-Asp-Leu] ... < 2.00
C[C@H](NC(=O)C[C@H](N)C(=O)O)C(=O)O [β-Asp-Ala] ... < 2.00
CSCC[C@H](NC(=O)CC[C@H](N)C(=O)O)C(=O)O [γ-Glu-Met] ... < 2.00
N[C@@H](CCC(=O)N[C@@H](CS)C(=O)O)C(=O)O [γ-Glu-Cys] ... < 2.00

IN: Find the measured pEC50 of COC(=O)C(N)CC(=O)O (racemic) [DL-Aspartic acid α-methyl ester] and report it.
OUT: < 2.00

IN: Find the measured pEC50 of NC(CC(C(=O)O)C(=O)O)C(=O)O (racemic) [γ-Carboxy-DL-glutamic acid] and report it.
OUT: < 2.00

IN: Find the measured pEC50 of N[C@@H](CCC(=O)N[C@@H](Cc1ccccc1)C(=O)O)C(=O)O [γ-Glu-Phe] and report it.
OUT: 2.00 to 3.00

IN: Find the measured pEC50 of C[Se]C[C@H](N)C(=O)O [Se-(Methyl)selenocysteine] and report it.
OUT: 2.00 to 3.00

IN: Find the measured pEC50 of N[C@@H](Cc1ccc(OP(=O)(O)O)cc1)C(=O)O [O-Phospho-L-tyrosine] and report it.
OUT: < 2.00

IN: Find the measured pEC50 of N[C@@H](C[C@H](O)C(=O)O)C(=O)O [2S,4S-g-Hydroxy-L-glutamic acid] and report it.
OUT: < 2.00

IN: Find the measured pEC50 of N[C@@H](CCC(=O)O)C(=O)O [L-Glutamic acid] and report it.
OUT: < 2.00

IN: Find the measured pEC50 of NC(=O)CC[C@H](NC(=O)CC[C@H](N)C(=O)O)C(=O)O [γ-Glu-Gln] and report it.
OUT: < 2.00

IN: Find the measured pEC50 of NC(CC(F)C(=O)O)C(=O)O (racemic) [4-Fluoro-DL-glutamic acid] and report it.
OUT: < 2.00

---

- System Under Test: cCaSR (Felis catus, UniProt C7FF08)
- Assay Overview: cell-based
- Study Conditions: EC50 Ago (M), Supplementary Table I, agonist assay; > 0.01 M = maximal response not reached
Structures can show the parent of a compound that is named as a salt.
Response field label: string, one of Yes (EC50 strictly below 0.004 M) or No.

CC(C)C[C@H](NC(=O)C[C@H](N)C(=O)O)C(=O)O ... No
C[Se]C[C@H](N)C(=O)O ... No
N[C@@H](CCC(=O)O)C(=O)O ... No
NC[C@@H]1O[C@H](O[C@H]2[C@@H](O)[C@H](O[C@@H]3[C@@H](O)[C@H](N)C[C@H](N)[C@H]3O[C@H]3O[C@H](CO)[C@@H](O)[C@H](O)[C@H]3N)O[C@@H]2CO)[C@H](N)[C@@H](O)[C@@H]1O [Paromomycin sulfate salt, reference compound] ... Yes
CC(C)[C@H](NC(=O)CC[C@H](N)C(=O)O)C(=O)O ... No
CSC[C@H](NC(=O)CC[C@H](N)C(=O)O)C(=O)NCC(=O)O ... No

IN: Bench note: check whether N[C@@H](CCC(=O)N[C@@H](CSCCO)C(=O)NCC(=O)O)C(=O)O [S-(2-Hydroxyethyl)glutathione] shows EC50 below 0.004 M
OUT: Yes

---

- System Under Test: cCaSR (Felis catus, UniProt C7FF08)
- Sequence (C7FF08 1-1081): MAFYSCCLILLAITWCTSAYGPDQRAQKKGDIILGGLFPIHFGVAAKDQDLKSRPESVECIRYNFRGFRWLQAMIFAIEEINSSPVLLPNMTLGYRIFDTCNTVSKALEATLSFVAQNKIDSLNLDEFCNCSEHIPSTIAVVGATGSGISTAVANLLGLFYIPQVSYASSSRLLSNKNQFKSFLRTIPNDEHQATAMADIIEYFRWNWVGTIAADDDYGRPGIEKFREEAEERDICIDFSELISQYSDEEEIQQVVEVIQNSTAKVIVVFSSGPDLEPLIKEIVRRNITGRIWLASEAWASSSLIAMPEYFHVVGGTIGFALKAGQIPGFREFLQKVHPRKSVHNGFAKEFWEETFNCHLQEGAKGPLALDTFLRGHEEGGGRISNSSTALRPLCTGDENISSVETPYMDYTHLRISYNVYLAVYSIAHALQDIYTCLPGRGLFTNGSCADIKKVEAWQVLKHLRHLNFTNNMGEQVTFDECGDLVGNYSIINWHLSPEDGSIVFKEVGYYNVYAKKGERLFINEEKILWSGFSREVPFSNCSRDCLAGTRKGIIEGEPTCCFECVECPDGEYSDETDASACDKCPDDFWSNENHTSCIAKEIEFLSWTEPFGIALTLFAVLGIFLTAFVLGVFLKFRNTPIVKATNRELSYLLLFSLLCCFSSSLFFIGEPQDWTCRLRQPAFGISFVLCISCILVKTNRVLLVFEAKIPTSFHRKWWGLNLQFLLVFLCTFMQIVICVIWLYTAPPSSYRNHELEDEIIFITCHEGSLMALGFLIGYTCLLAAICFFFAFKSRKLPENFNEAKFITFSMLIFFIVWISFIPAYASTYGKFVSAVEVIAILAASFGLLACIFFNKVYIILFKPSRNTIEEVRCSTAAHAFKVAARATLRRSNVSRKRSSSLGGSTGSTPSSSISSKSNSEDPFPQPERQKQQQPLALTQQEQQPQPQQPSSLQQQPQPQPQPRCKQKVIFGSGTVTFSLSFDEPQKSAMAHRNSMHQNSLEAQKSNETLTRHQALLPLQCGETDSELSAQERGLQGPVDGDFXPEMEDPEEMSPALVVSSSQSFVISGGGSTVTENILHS
- Assay Overview: cCaSR transiently expressed in HEK293/natClytin, agonist luminescence assay
- Format: cell-based
Measure Name: EC50 (µM)
Please state the figure in µM; there is no need to write the unit.

IN: Find the measured EC50 of NCCCCNCCCN and report it.
OUT: 1100
